- Test system: Staphylococcus aureus
- assay: Antimicrobial activity against Staphylococcus aureus harboring GyrB T173N mutant assessed as growth inhibition
- Format: functional
For each entry below, report its log10 MIC value.
Heads up: the numbers are on a log10 scale; they represent MIC in µg/mL.

[[record]]
compound = "CCNC(=O)Nc1nc2cc(-c3cnc(C4(O)COC4)nc3)cc(-c3ccccn3)c2s1"
experimental_target = "Staphylococcus aureus"
attribute_measured = "log10 MIC"
reported_result = -0.30

[[record]]
compound = "CCNC(=O)Nc1nc2cc(-c3cnc(C(C)(O)CO)nc3)cc(-c3ccccn3)c2s1 (racemic)"
experimental_target = "Staphylococcus aureus"
attribute_measured = "log10 MIC"
reported_result = 0.00


Value sought for every listed compound: log10 MIC.
1. CCNC(=O)Nc1nc2cc(-c3cnc(C(C)(C)O)nc3)cc(-c3ccccn3)c2s1
2. CCCC(O)c1ncc(-c2cc(-c3ccccn3)c3sc(NC(=O)NCC)nc3c2)cn1 (racemic)

[-0.60, -0.60]
